system: T-cell; experiment: IL-2 secretion from T-cells co-stimulated with anti-CD3 and anti-CD28 antibody (Biological Example 2); format: cell-based, human; settings: Homo sapiens, T-cell, fold change over baseline; 4 μM Cbl-b inhibitor; primary human total T-cells; read-out: IL-2 secretion Anti-CD3/Anti-CD28 stimulation
ENDPOINT: fold induction at 4 µM

* C[C@H](Sc1nncn1C)c1cc(F)cc(N2Cc3c(cccc3C(F)(F)F)C2=O)c1 [Compound 168a] | < 1
* C[C@H](Cc1nncn1C)c1cccc(N2Cc3c(ccnc3C3CCC3)C2=O)c1 | 5 to 7.5
* C[C@H](Cc1nncn1C)c1cc(NCCO)nc(N2Cc3c(cccc3C(F)(F)F)C2=O)c1 | 2.51 to 5
* C[C@H](Sc1nncn1C)c1cccc(NC(=O)c2cc(C(F)(F)F)cc(C(F)(F)F)n2)c1 | 1.01 to 2.5
* C[C@H](Cc1nncn1C)c1cccc(NC(=O)c2cc(C(=O)N3CC(O)C(F)(F)C3)ccn2)c1 (some centres unmarked) | 2.51 to 5
* C[C@H](Sc1nncn1C)c1cccc(NC(=O)c2cc(C(C)(C)O)cc(C(F)(F)F)n2)c1 | 1.01 to 2.5
* Cc1cc(C(=O)Nc2cccc(C3(Cc4nncn4C)COC3)c2)nc(C2CCC2)n1 | > 7.5
* Cn1cnnc1[C@H]1CC[C@H]1c1cccc(N2Cc3c(cccc3C(F)(F)F)C2=O)c1 (racemic) | 1.01 to 2.5
* CC(C)Nc1cc([C@H](C)Cc2nncn2C)cc(N2Cc3c(cccc3C(F)(F)F)C2=O)n1 | > 7.5
* C[C@H](Cc1nncn1C)c1cc(OCCO)nc(N2Cc3c(cccc3C(F)(F)F)C2=O)c1 | 2.51 to 5
* C[C@H](Cc1nncn1C)c1cccc(N2Cc3c(cc(C(=O)N4CC(O)C4)cc3C3CC3)C2=O)c1 | 2.51 to 5
* Cc1cc(C(=O)Nc2cccc([C@@H](C)Cc3nncn3C)c2)nc(C2CC2)n1 | 2.51 to 5
* Cc1ncc(C(=O)Nc2cccc([C@H](C)Sc3nncn3C)c2)nc1C1CC1 | 2.51 to 5
* C[C@H](Cc1nncn1C)c1cccc(NC(=O)c2ccn3nccc3n2)c1 | 2.51 to 5
* Cn1cnnc1CC1(c2cccc(NC(=O)c3cc(C4CC4)nc(C4CC4)n3)c2)COC1 | > 7.5
* C[C@H](Sc1nncn1C)c1cccc(NC(=O)c2cc(Cl)cc(C(F)(F)F)n2)c1 | 1.01 to 2.5
* Cc1ccnn1CC(C)c1cccc(NC(=O)c2cccc(C(F)(F)F)n2)c1 (centres unmarked) | 1.01 to 2.5
* COc1cc(C(=O)Nc2cccc([C@H](C)Sc3nncn3C)c2)nc(C(F)(F)F)c1 | 5 to 7.5
* C[C@H](Sc1nncn1C)c1cccc(NC(=O)c2ccnc(C(F)(F)F)n2)c1 | 1.01 to 2.5
* C[C@H](Cc1nncn1C)c1cccc(NC(=O)c2cc(S(C)(=O)=O)cc(C3CC3)n2)c1 | 1.01 to 2.5
* C[C@H](Cc1nncn1C)c1ccnc(N2Cc3c(cccc3C(F)(F)F)C2=O)c1 [Compound 304b] | 1.01 to 2.5
* C[C@H](Cc1nncn1C)c1cccc(NC(=O)c2cc3cccn3cn2)c1 | 1.01 to 2.5
* C[C@H](Sc1nncn1C)c1ccnc(NC(=O)c2cc3c(C(F)(F)F)cccc3[nH]2)c1 | 1.01 to 2.5
